Target: BTK T316A (Homo sapiens (Human), UniProt Q06187, T316A)
Sequence (Q06187 whole entry T316A): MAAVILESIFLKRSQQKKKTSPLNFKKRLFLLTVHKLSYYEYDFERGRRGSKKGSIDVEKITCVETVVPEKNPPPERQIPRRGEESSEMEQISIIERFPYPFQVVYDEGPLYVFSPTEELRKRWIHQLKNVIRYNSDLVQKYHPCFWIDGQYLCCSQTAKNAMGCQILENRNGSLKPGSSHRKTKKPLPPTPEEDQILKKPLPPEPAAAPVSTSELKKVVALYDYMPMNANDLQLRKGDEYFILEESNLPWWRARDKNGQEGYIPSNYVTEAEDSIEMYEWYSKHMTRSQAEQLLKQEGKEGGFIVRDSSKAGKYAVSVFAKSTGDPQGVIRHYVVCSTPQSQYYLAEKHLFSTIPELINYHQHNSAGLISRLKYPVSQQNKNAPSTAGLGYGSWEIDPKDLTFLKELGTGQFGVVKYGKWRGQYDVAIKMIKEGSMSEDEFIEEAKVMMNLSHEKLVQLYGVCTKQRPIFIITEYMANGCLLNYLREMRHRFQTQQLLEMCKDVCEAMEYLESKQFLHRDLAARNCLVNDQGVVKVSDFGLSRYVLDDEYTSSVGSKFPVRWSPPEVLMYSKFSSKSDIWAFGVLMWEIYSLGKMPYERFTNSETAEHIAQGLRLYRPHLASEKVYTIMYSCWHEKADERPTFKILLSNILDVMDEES
Test: Binding kinetics measurements (Surface Plasmon Resonance) on BTK T316A
Details: target residence time, SPR
Grouping key: Tau (h) BTK T316A (Act). Bins: L: < 2 h; M: ≥ 2 h and < 3 h; H: ≥ 3 h

molecule	assigned.category
C[C@@H]1CCn2nc(-c3ccc(C(=O)Nc4cc(C(F)(F)F)ccn4)cc3)c3c(N)ncc(c32)/C=C/COCCC(=O)N1	H
C[C@@H]1CC(=O)N[C@@H]2CCC[C@H](C2)n2nc(-c3ccc(C(=O)Nc4cc(C(F)(F)F)ccn4)cc3)c3c(N)ncc(c32)/C=C/CCO1	H
N#Cc1ccnc(NC(=O)c2ccc(-c3nn4c5c(cnc(N)c35)/C=C/COCCC(=O)N[C@@H]3CCC[C@@H]4C3)cc2)c1	H
C[C@@H]1C[C@@H](C)n2nc(-c3ccc(C(=O)Nc4cc(C(F)(F)F)ccn4)cc3)c3c(N)ncc(c32)/C=C/CCCCCC(=O)N1	M
Nc1ncc2n3c(nc(-c4ccc(C(=O)Nc5cc(C(F)(F)F)ccn5)cc4)c13)[C@@H]1CCC[C@H](C1)NC(=O)CCCCC/C=C/2	H
Nc1ncc2c3c1c(-c1ccc(C(=O)Nc4cc(C(F)(F)F)ccn4)cc1)nn3[C@@H]1CCC[C@H](C1)NC(=O)CCCC/C=C\C2 [Example 98b]	H
C[C@@H]1CC(=O)N[C@@H]2CCC[C@H](C2)n2nc(-c3ccc(C(=O)Nc4cc(C(F)(F)F)ccn4)cc3)c3c(N)ncc(c32)/C=C/CCN1C	M
C[C@H]1CC(=O)N[C@@H]2CCC[C@H](C2)n2nc(-c3ccc(C(=O)Nc4cc(C(F)(F)F)ccn4)cc3)c3c(N)ncc(c32)/C=C/CCO1	L
C[C@@H]1CC(=O)N[C@@H]2CC[C@H](C2)n2nc(-c3ccc(C(=O)Nc4cc(C(F)(F)F)ccn4)cc3)c3c(N)ncc(c32)/C=C/CCN1	H
Nc1ncc2c3c1c(-c1ccc(C(=O)Nc4cc(C(F)(F)F)ccn4)cc1)nn3[C@@H]1CCCN(C1)C(=O)CCCCCC/C=C/2	H
Nc1ncc2c3c1c(-c1ccc(C(=O)Nc4cc(C(F)(F)F)ccn4)cc1)nn3[C@@H]1CCC[C@H](C1)C(=O)NCCCCC/C=C/2	H
Nc1ncc2c3c1c(-c1ccc(C(=O)Nc4cc(C(F)(F)F)ccn4)cc1)nn3[C@@H]1CCC[C@H](C1)NC(=O)COCC/C=C/2	M
N#Cc1ccnc(NC(=O)c2ccc(-c3nn4c5c(cnc(N)c35)/C=C/CCN3CC[C@H]3C(=O)N[C@@H]3CCC[C@@H]4C3)cc2)c1	H
Nc1ncc2c3c1c(-c1ccc(C(=O)Nc4cc(C(F)(F)F)ccn4)cc1)nn3[C@@H]1CCC[C@H](C1)NC(=O)CCCCC/C=C/2	H
C[C@@H]1CC(=O)N[C@@H]2CCC[C@H](C2)n2nc(-c3ccc(C(=O)Nc4cc(C(F)(F)F)ccn4)cc3)c3c(N)ncc(c32)/C=C/CN1C	M
C[C@H]1CN(C2COC2)CCN1c1ccc(Nc2cc(-c3ccnc(N4CCn5c(cc6c5CC(C)(C)C6)C4=O)c3CO)cn(C)c2=O)nc1 [fenebrutinib, reference compound]	L
Nc1ncc2c3c1c(-c1ccc(C(=O)Nc4cc(C(F)(F)F)ccn4)cc1)nn3[C@@H]1CCCN(C1)C(=O)CCCCCC(O)/C=C/2 (stereo partly drawn)	L
C[C@@H]1C[C@@H](C)n2nc(-c3ccc(C(=O)Nc4cc(C(F)(F)F)ccn4)cc3)c3c(N)ncc(c32)/C=C/COCCC(=O)N1	H
Nc1ncc2c3c1c(-c1ccc(C(=O)Nc4cc(C(F)(F)F)ccn4)cc1)nn3[C@@H]1CCC[C@H](C1)C(=O)NCCCC/C=C\C2 [Example 85b]	M
CC1NC/C=C/c2cnc(N)c3c(-c4ccc(C(=O)Nc5cc(C(F)(F)F)ccn5)cc4)nn(c23)[C@@H]2CCC[C@H](C2)NC1=O (single isomer, unassigned)	M
Nc1ncc2c3c1c(-c1ccc(C(=O)Nc4cc(C(F)(F)F)ccn4)cc1)nn3[C@@H]1CCC[C@H](C1)NC(=O)CNC[C@@H](O)/C=C/2	L
